# EXPERIMENT SUMMARY: inhibition of M3R-evoked calcium signal on retest – cell-based, HEK293 M3R/RGS4 inducible, calcium flux, duplicate, RGS4 activator project, confirmation (AID 602282);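 further: signal is the integrated peak-minus-minimum Fluo4 fluorescence over baseline ratio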
# RECORDED CONDITIONS: carbachol calcium flux Fluo4, at 10 µM
The campaign covered roughly 1,100 compounds. About 1,000 (91%) were called active.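 How the source made its calls: active means inhibition above 3 SD of the buffer control wells (cut at about 41% in these data); inactive means the rest.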 So high a share suggests a set chosen from earlier hits. Only a sample is shown.
Select the correct class. Options are Y for active, N for inactive and nothing else.

Would you please look over these solved cases?
molecule=Cc1cccc(-c2nc3ccc(C(=O)NCCN4CCN(C)CC4)cc3nc2-c2cccc(C)c2)c1 label_class=Y
molecule="Cc1ccc(N2C(=O)CC(Nc3cccc4ccccc34)C2=O)cc1 (stereo not given)" label_class=N
molecule="CC(C)C(c1nnnn1CCc1ccccc1)N1CCN(C(=O)c2ccco2)CC1 (stereo not given)" label_class=Y
molecule="COc1ccc(CN2CCCC(C(=O)c3ccc(Cl)cc3)C2)cc1Cn1cncn1 (stereo not given)" label_class=Y
molecule="Cc1ccccc1C(OCCN(C)C)C1CCCCC1 (stereo not given)" label_class=Y

Query: Please state the recorded outcome for this molecule: `Cc1ccc(OS(=O)(=O)c2ccc(-c3csc(C)n3)s2)c(C)c1`
Reply: Y

Query: Outcome? O=C(c1cccs1)C1C(c2ccc(Br)cc2)NC(=S)NC1(O)C(F)(F)F (stereo not given)
Reply: Y

Query: // param item: `Cc1ccc(C)c(N2CCN(C(=O)CCCn3c(=O)c4cccn4c4cccnc43)CC2)c1` ; yields the recorded call
Reply: Y

Query: Just curious, what result did COc1cccc(CNC(=O)CCC2CCCN(Cc3ccc(OC(F)F)cc3)C2)c1 (stereo not given) get here?
Reply: Y

Query: Any idea what this test logged for `COc1cc(/C=C(\C#N)c2nc3ccccc3[nH]2)ccc1O` ?
Reply: Y

---

# EXPERIMENT SUMMARY: inhibition of M3R-evoked calcium signal on retest – cell-based, HEK293 M3R/RGS4 inducible, calcium flux, duplicate, RGS4 activator project, confirmation (AID 602282);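 further: signal is the integrated peak-minus-minimum Fluo4 fluorescence over baseline ratio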
# RECORDED CONDITIONS: carbachol calcium flux Fluo4, at 10 µM
The whole screen tested about 1,100 compounds, of which about 1,000 (91%) were called active.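 The calls were made as follows: active = inhibition above 3 SD of the buffer control wells (cut at about 41% in these data); inactive = the rest.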 The set was probably picked from earlier hits. Only a sample is shown.
Parameter call: string, one of active, inactive

Check out these entries, answers already filled in.
molecule=CN(C)CCOc1ccc(Cl)cc1C(C)(C)C label_class=active
molecule="COc1ccccc1C(CNC(=O)c1cccc(NS(=O)(=O)c2ccc(Br)cc2)c1)N(C)C (stereo not drawn)" label_class=active
molecule="CCC1CCCCN1CCCNC(=O)c1cc2c(Cl)nc3ccccc3c2s1 (stereo not drawn)" label_class=active
molecule="OCCC1CN(Cc2ccc3nsnc3c2)CCN1C1CCCC1 (stereo not drawn)" label_class=active
molecule=Cc1nn(C)cc1N1C(=O)c2cccc3c(N)ccc(c23)C1=O label_class=active
molecule=COC(=O)c1ccc(CN2CCC(CO)(Cc3ccc(OC)cc3)CC2)cc1 label_class=active
molecule=O=C(CN1CCCCCC1)Nc1ccc(S(=O)(=O)N2CCCCC2)cc1 label_class=active
molecule=N=c1c2c3c(sc2nc2n1CCCCC2)CCCC3 label_class=active

Query: What did the test return for S=c1[nH]nc(-c2ccc(Cl)cc2)n1CC1CCCO1 (stereo not drawn) ?
Reply: active

Query: For this molecule, state the assay outcome: `O=S(=O)(c1ccc(Br)cc1)n1ccc2ccccc21`
Reply: active

Query: How did this test come out for `CN1CCN(C(=O)N2c3ccccc3CCc3ccccc32)CC1` ?
Reply: active

Query: Could you check what this test reported for `CCOC(=O)c1c(NC(=O)NC(C)(C)C)sc2c1CCN(C)C2` ?
Reply: inactive

Query: So what was the verdict on `CN(C)c1ccc(/C=C2\NC(=S)N(Cc3ccccc3)C2=O)cc1` in this test?
Reply: active
